Target: T1, Recombinant human Factor IX (rhFIX) (Homo sapiens, UniProt P00740, T194A)
T1 construct: purchased Genetics Institute
T1 sequence (P00740 47-461 T194A): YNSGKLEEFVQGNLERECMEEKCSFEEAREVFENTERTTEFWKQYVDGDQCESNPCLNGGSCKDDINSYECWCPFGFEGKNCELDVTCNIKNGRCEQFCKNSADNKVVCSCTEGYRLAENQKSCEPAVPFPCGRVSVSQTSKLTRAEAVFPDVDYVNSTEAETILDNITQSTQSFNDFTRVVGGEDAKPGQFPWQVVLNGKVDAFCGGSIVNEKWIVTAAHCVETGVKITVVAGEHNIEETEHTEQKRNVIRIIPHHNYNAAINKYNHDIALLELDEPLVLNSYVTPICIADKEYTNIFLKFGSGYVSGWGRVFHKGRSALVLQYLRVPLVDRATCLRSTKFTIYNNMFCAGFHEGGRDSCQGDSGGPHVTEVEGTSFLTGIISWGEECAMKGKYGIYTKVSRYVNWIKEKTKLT
Test: BIAcore kinetics of Factor IX binding to mAb on protein A surface
Settings: rhFIX 49 nM, 5 mM Ca2+, biosensor
Recorded measurements of kass, one per entry
Report as: number unit

Here is how some molecules turned out for kass.
Molecule: SB 257732: humanized anti-Factor IX mAb, heavy chain F9HZHC 3-0 (SEQ ID NO: 89), light chain F9HZLC 3-0 (SEQ ID NO: 99) (antibody, V domains shown) VH: MGWSCIILFLVATATGVHSQIQLVQSGSELKKPGASVKVSCKASGYTFTNYGMNWVRQAPGQGLEWMGWINTRNGKSTYVDDFKGRFVFSLDTSVSTAYLQISSLKAEDTAVYFCTREGNMDGYFPFTYWGQGTLVTVSS VL: MGWSCIILFLVATATGVHSQIVLTQSPSSLSASVGDRVTITCRASSSVNYMHWYQQKPGKAPKPWIYATSNLASGVPSRFSGSGSGTDYTLTISSLQPEDFATYYCQQWSINPRTFGGGTKLEIKRTVV
kass: 1.1e+06 M⁻¹ s⁻¹

Molecule: SB 257731: humanized anti-Factor IX mAb, heavy chain F9HZHC 1-1 (SEQ ID NO: 52), light chain F9HZLC 1-3 (SEQ ID NO: 78) (antibody, V domains shown) VH: QVQLVQSGSELKKPGASVKVSCKASGYTFTNYGMNWVRQAPGQGLKWMGWINTRNGKSTYVDDFKGRFVFSLDSSVSTAYLQISSLKADDTAVYYCTREGNMDGYFPFTYWGQGTLVTVSS VL: MGWSCIILFLVATATGVHSQIVLTQSPATLSLSPGERATLSCRASSSVNYMHWYQQRPGQAPKPWIYATSNLASGVPARFSGSGSGTDYTLTISSLEPEDFAVYYCQQWSINPRTFGGGTKVEIK
kass: 920000 M⁻¹ s⁻¹

Molecule: SB 249413: humanized anti-Factor IX mAb, heavy chain F9HZHC 1-0 (SEQ ID NO: 31), light chain F9HZLC 1-0 (SEQ ID NO: 44) (antibody, V domains shown) VH: QVQLVQSGSELKKPGASVKVSCKASGYTFTNYGMNWVRQAPGQGLEWMGWINTRNGKSTYVDDFKGRFVFSLDTSVSTAYLQISSLKADDTAVYYCAREGNMDGYFPFTYWGQGTLVTVSS VL: EIVLTQSPATLSLSPGERATLSCRASSSVNYMHWYQQRPGQAPRLLIYATSNLASGIPARFSGSGSGTDFTLTISSLEPEDFAVYYCQQWSINPRTFGGGTKVEIKR
kass: 650000 M⁻¹ s⁻¹

Molecule: SB 249415: humanized anti-Factor IX mAb, heavy chain F9HZHC 1-1 (SEQ ID NO: 52), light chain F9HZLC 1-1 (SEQ ID NO: 57) (antibody, V domains shown) VH: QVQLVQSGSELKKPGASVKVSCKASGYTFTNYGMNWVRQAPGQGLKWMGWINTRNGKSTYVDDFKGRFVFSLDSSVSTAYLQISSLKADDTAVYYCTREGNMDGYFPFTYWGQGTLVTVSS VL: EIVLTQSPATLSLSPGERATLSCRASSSVNYMHWYQQRPGQAPKPWIYATSNLASGVPARFSGSGSGTDFTLTISSLEPEDFAVYYCQQWSINPRTFGGGTKVEIKR
kass: 750000 M⁻¹ s⁻¹

# input molecule: SB 249416: humanized anti-Factor IX mAb, heavy chain F9HZHC 1-1 (SEQ ID NO: 52), light chain F9HZLC 1-2 (SEQ ID NO: 62) (antibody, V domains shown) VH: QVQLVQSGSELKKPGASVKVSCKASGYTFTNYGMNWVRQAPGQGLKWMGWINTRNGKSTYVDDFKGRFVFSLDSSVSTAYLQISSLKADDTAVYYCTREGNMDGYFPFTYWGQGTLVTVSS VL: EIVLTQSPATLSLSPGERATLSCRASSSVNYMHWYQQRPGQAPKPWIYATSNLASGVPARFSGSGSGTDYTLTISSLEPEDFAVYYCQQWSINPRTFGGGTKVEIKR ; wanted: its kass
520000 M⁻¹ s⁻¹
